molecular target: HIV-1 JR-CSF Env T394A (HIV-1 (isolate JR-CSF)) (UniProt P20871); experiment: cell-based or functional assay
measurement kind: Fold IC50 increase relative to wild-type

Looking up PGT-125 (antibody, V domains shown) VH: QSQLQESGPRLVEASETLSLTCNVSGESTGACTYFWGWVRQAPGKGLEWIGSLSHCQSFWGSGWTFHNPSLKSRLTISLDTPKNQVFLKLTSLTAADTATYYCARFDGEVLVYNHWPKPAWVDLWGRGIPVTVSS VL: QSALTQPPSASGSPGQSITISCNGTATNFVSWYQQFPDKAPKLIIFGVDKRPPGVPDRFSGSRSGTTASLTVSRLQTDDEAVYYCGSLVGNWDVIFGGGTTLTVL , I found its Fold IC50 increase relative to wild-type recorded as 0.6 fold

Looking up PGT-135 (antibody, V domains shown) VH: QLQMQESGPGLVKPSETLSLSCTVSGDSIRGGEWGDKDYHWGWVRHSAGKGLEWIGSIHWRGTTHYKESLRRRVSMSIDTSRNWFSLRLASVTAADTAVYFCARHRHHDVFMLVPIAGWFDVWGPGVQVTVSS VL: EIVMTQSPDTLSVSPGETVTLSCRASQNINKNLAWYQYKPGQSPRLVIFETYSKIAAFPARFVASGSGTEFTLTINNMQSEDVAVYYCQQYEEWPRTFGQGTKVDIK , I found its Fold IC50 increase relative to wild-type recorded as > 75 fold

Looking up PGT-127 (antibody, V domains shown) VH: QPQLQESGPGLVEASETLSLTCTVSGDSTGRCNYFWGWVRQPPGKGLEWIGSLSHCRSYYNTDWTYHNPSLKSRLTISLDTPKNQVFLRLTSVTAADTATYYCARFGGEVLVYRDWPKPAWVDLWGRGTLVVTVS VL: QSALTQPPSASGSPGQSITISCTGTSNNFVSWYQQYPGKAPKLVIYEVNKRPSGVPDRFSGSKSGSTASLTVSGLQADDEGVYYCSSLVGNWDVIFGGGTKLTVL , I found its Fold IC50 increase relative to wild-type recorded as 1.6 fold

Looking up PGT-131 (antibody, V domains shown) VH: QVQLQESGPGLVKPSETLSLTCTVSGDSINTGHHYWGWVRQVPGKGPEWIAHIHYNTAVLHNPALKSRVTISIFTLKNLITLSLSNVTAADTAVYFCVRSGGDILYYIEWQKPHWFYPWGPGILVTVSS VL: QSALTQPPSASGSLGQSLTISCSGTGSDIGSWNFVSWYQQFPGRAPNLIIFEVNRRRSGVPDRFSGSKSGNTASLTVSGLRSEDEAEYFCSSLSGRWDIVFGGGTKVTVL , I found its Fold IC50 increase relative to wild-type recorded as 0.9 fold

Looking up PGT-123 (antibody, V domains shown) VH: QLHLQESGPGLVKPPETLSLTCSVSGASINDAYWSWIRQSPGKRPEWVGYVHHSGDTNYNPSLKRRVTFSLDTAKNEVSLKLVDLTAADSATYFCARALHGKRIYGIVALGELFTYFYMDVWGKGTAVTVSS VL: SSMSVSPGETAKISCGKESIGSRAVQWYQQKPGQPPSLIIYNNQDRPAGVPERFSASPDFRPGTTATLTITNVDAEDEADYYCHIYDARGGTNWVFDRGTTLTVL , I found its Fold IC50 increase relative to wild-type recorded as 0.4 fold
